target.system: NS3h_2a (Hepatitis C virus genotype 2a, UniProt Q99IB8)
Construct: truncated C-terminally His-tagged NS3 proteins lacking the N-terminal protease, called NS3h; His-tag (C)
Sequence (Q99IB8 1196-1661): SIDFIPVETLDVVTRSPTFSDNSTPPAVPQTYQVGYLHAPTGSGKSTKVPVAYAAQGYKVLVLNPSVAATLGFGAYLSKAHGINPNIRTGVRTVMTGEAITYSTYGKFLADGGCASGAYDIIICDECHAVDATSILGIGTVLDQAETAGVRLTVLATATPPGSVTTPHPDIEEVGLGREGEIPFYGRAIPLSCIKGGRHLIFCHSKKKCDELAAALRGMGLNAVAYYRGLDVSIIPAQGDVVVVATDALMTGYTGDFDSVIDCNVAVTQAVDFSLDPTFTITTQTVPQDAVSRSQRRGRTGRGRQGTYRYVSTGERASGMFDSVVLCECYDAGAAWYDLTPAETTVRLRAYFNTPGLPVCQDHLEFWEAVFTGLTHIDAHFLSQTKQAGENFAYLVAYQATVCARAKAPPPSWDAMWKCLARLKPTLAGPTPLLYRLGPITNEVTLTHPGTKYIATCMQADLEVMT
run.description: RNA helicase assay (three-stranded RNA substrate)
pIC50: −log10 of the molar value.
This section presents compounds with their documented pIC50 values.
readout: pIC50

- compound: "Cc1ccc2nc(-c3ccc4nc(-c5ccc(NC(=O)c6ccc(N)cc6)cc5)sc4c3)sc2c1S(=O)(=O)O [Compound 6]"
  measured: 5.15
- compound: "Cc1ccc2nc(-c3ccc4nc(-c5ccc(NC(=O)c6ccc(C(F)(F)F)cc6)cc5)sc4c3)sc2c1S(=O)(=O)O [Compound 12]"
  measured: 5.52
- compound: "Cc1ccc2nc(-c3ccc4nc(-c5ccc(NC(=O)c6cc(C(F)(F)F)cc(C(F)(F)F)c6)cc5)sc4c3)sc2c1S(=O)(=O)O [Compound 24]"
  measured: 4.85

---

target.system: HCV NS3 helicase NS3h_1b(con1) (Hepatitis C virus genotype 1b, UniProt Q9WMX2)
Construct: truncated C-terminally His-tagged NS3 proteins lacking the N-terminal protease, called NS3h; His-tag (C); made in house
Sequence (Q9WMX2 1192-1657): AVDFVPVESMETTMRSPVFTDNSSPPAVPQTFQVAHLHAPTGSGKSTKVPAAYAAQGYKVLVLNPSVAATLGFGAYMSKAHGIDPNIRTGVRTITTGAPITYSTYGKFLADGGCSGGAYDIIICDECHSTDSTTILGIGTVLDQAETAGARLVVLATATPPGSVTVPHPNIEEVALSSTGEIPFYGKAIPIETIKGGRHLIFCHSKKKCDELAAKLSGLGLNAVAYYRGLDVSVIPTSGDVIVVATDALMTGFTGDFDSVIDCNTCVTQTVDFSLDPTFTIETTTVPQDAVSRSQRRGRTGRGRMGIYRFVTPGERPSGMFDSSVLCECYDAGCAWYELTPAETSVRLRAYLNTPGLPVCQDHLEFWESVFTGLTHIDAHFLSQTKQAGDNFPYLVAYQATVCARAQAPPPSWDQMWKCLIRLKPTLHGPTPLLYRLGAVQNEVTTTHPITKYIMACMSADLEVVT
run.description: MBHA screen of NCI mechanistic set library at 20 μM (percent inhibition, compound interference)
Format: biochemical
recorded.conditions: compounds at 20 μM, MBHA with DNA substrate; calculated from Equation 1

- compound: "O=S(=O)(O)SC/C=C/CSS(=O)(=O)O"
  target.system: "HCV NS3 helicase NS3h_1b(con1) (Hepatitis C virus genotype 1b, UniProt Q9WMX2)"
  Inh. (%) (Inhibition): "−8.2"
- compound: "C(=N\\NC1=NCCN1)/c1c2ccccc2c(/C=N/NC2=NCCN2)c2ccccc12"
  target.system: "HCV NS3 helicase NS3h_1b(con1) (Hepatitis C virus genotype 1b, UniProt Q9WMX2)"
  Inh. (%) (Inhibition): 70.0
- compound: "COc1ccc(/C(=N/O)C(c2ccc(OC)cc2)C2C(=O)Oc3ccccc32)cc1 (stereo not drawn)"
  target.system: "HCV NS3 helicase NS3h_1b(con1) (Hepatitis C virus genotype 1b, UniProt Q9WMX2)"
  Inh. (%) (Inhibition): 29.4
- compound: "O=C1C2=Nc3ccccc3C(O)N2c2ccccc21 (stereo not drawn)"
  target.system: "HCV NS3 helicase NS3h_1b(con1) (Hepatitis C virus genotype 1b, UniProt Q9WMX2)"
  Inh. (%) (Inhibition): "−2.1"
- compound: "O=C1NC(c2cccc3ccccc23)Nc2ccccc21 (stereo not drawn)"
  target.system: "HCV NS3 helicase NS3h_1b(con1) (Hepatitis C virus genotype 1b, UniProt Q9WMX2)"
  Inh. (%) (Inhibition): 14.8
- compound: "COC(=O)C1=CC(=O)C(C(=O)Nc2ccc(OC)cc2)C(c2ccccc2)O1 (stereo not drawn)"
  target.system: "HCV NS3 helicase NS3h_1b(con1) (Hepatitis C virus genotype 1b, UniProt Q9WMX2)"
  Inh. (%) (Inhibition): 4.2
- compound: "NC1N=C(c2ccc(Cl)cc2)C2=C(N1)c1ccccc1CC2 (stereo not drawn)"
  target.system: "HCV NS3 helicase NS3h_1b(con1) (Hepatitis C virus genotype 1b, UniProt Q9WMX2)"
  Inh. (%) (Inhibition): "−1.8"
- compound: "Cl.Cl.Nc1ccc(OCCCc2c(-c3ccccc3)nc(N)[nH]c2=O)cc1"
  target.system: "HCV NS3 helicase NS3h_1b(con1) (Hepatitis C virus genotype 1b, UniProt Q9WMX2)"
  Inh. (%) (Inhibition): "−11.6"
- compound: "N#CC(C#N)=Cc1cccc(Oc2ccccc2)c1"
  target.system: "HCV NS3 helicase NS3h_1b(con1) (Hepatitis C virus genotype 1b, UniProt Q9WMX2)"
  Inh. (%) (Inhibition): "−0.1"
- compound: "OCC1OC(n2cnc3c(=S)nc[nH]c32)C(O)C1O (stereo not drawn)"
  target.system: "HCV NS3 helicase NS3h_1b(con1) (Hepatitis C virus genotype 1b, UniProt Q9WMX2)"
  Inh. (%) (Inhibition): 1.7
- compound: "CC12C(=O)OC(=O)C1(C)C1CCC2O1 (stereo not drawn)"
  target.system: "HCV NS3 helicase NS3h_1b(con1) (Hepatitis C virus genotype 1b, UniProt Q9WMX2)"
  Inh. (%) (Inhibition): "−0.5"
- compound: "CC(C)(C)NCCC(O)c1cc(C(F)(F)F)nc2c(C(F)(F)F)cccc12.O=P(O)(O)O (stereo not drawn)"
  target.system: "HCV NS3 helicase NS3h_1b(con1) (Hepatitis C virus genotype 1b, UniProt Q9WMX2)"
  Inh. (%) (Inhibition): 28.1
- compound: "N.N.[Cl][Pt][Cl]"
  target.system: "HCV NS3 helicase NS3h_1b(con1) (Hepatitis C virus genotype 1b, UniProt Q9WMX2)"
  Inh. (%) (Inhibition): 25.1
- compound: "Cl.Nc1nccc2c1ncn2C1C=C(CO)C(O)C1O (stereo not drawn)"
  target.system: "HCV NS3 helicase NS3h_1b(con1) (Hepatitis C virus genotype 1b, UniProt Q9WMX2)"
  Inh. (%) (Inhibition): "−12.9"
- compound: "COC(=O)[C@@]12OC[C@]34[C@H]([C@@H](O)[C@@H]1O)[C@@]1(C)CC(=O)C(O)=C(C)[C@@H]1C[C@H]3OC(=O)[C@H](OC(=O)/C=C(\\C)C(C)C)[C@@H]24"
  target.system: "HCV NS3 helicase NS3h_1b(con1) (Hepatitis C virus genotype 1b, UniProt Q9WMX2)"
  Inh. (%) (Inhibition): 14.6
- compound: "COc1cc(O)c2c(c1)C(=O)c1cc3c(c(O)c1C2=O)C(OC1OC(C)C(O)C(O)C1OC)C(OC)C(C)(O)C3=O (stereo not drawn)"
  target.system: "HCV NS3 helicase NS3h_1b(con1) (Hepatitis C virus genotype 1b, UniProt Q9WMX2)"
  Inh. (%) (Inhibition): 38.9
- compound: "C/C(=N\\NC(=S)N1CCC1)c1ccccn1"
  target.system: "HCV NS3 helicase NS3h_1b(con1) (Hepatitis C virus genotype 1b, UniProt Q9WMX2)"
  Inh. (%) (Inhibition): 3.2
- compound: "O=[N+]([O-])c1ccccc1S(=O)(=O)c1ccccc1[N+](=O)[O-]"
  target.system: "HCV NS3 helicase NS3h_1b(con1) (Hepatitis C virus genotype 1b, UniProt Q9WMX2)"
  Inh. (%) (Inhibition): 23.2
- compound: "Cc1cc(N(C)C)ccc1N=Nc1ccc2ncccc2c1"
  target.system: "HCV NS3 helicase NS3h_1b(con1) (Hepatitis C virus genotype 1b, UniProt Q9WMX2)"
  Inh. (%) (Inhibition): "−1.4"
- compound: "O=C(CC1(O)C(=O)Nc2c(Cl)ccc(Cl)c21)c1ccc(Cl)cc1 (stereo not drawn)"
  target.system: "HCV NS3 helicase NS3h_1b(con1) (Hepatitis C virus genotype 1b, UniProt Q9WMX2)"
  Inh. (%) (Inhibition): 0.1
- compound: "CC[C@@]1(O)C[C@H](O[C@H]2C[C@H](N(C)C)[C@H](O[C@H]3C[C@H](O)[C@H](O[C@H]4CCC(=O)[C@H](C)O4)[C@H](C)O3)[C@H](C)O2)c2c(cc3c(c2O)C(=O)c2c(O)cccc2C3=O)[C@@H]1C(=O)OC"
  target.system: "HCV NS3 helicase NS3h_1b(con1) (Hepatitis C virus genotype 1b, UniProt Q9WMX2)"
  Inh. (%) (Inhibition): 56.5
- compound: "[Cl][Hg][c]1ccc2ccccc2c1"
  target.system: "HCV NS3 helicase NS3h_1b(con1) (Hepatitis C virus genotype 1b, UniProt Q9WMX2)"
  Inh. (%) (Inhibition): "−18.5"
- compound: "CCCC/C=C/C=C/C=C/CCCCCCCC(=O)OCC(COC(=O)CCCCCCC/C=C/C1C=CC(CCCC)C(C(=O)O)C1C(=O)O)OC(=O)CCCCCCC/C=C/C=C/C=C/CCCC.OCCNCO (stereo not drawn)"
  target.system: "HCV NS3 helicase NS3h_1b(con1) (Hepatitis C virus genotype 1b, UniProt Q9WMX2)"
  Inh. (%) (Inhibition): "−1.3"
- compound: "CN(C)c1cccc(F)c1C(=O)NC(=O)Nc1ccc(Cl)cc1"
  target.system: "HCV NS3 helicase NS3h_1b(con1) (Hepatitis C virus genotype 1b, UniProt Q9WMX2)"
  Inh. (%) (Inhibition): "−8.6"
- compound: "Cc1ccc2[c](c1)[Sn]([c]1ccccc1)([c]1ccccc1)[c]1cc(C)ccc1N2C"
  target.system: "HCV NS3 helicase NS3h_1b(con1) (Hepatitis C virus genotype 1b, UniProt Q9WMX2)"
  Inh. (%) (Inhibition): "−13.1"
- compound: "N#CC(=S)Nc1ccc(F)cc1"
  target.system: "HCV NS3 helicase NS3h_1b(con1) (Hepatitis C virus genotype 1b, UniProt Q9WMX2)"
  Inh. (%) (Inhibition): 2.8
- compound: "COc1ccc2cccc(C(=N)c3ccc(C)c4c3CCC4)c2c1"
  target.system: "HCV NS3 helicase NS3h_1b(con1) (Hepatitis C virus genotype 1b, UniProt Q9WMX2)"
  Inh. (%) (Inhibition): 14.3
- compound: "CC12CCC(O)CC1CCC1C2CCC2(C)C(C3=CC(=O)OC3)CCC12O (stereo not drawn)"
  target.system: "HCV NS3 helicase NS3h_1b(con1) (Hepatitis C virus genotype 1b, UniProt Q9WMX2)"
  Inh. (%) (Inhibition): "−11.1"
- compound: "O=C(CC(=O)c1ccccc1NC1=Cc2ccccc2C(=O)C1=O)C(=O)NC1=C(Cl)C(=O)c2ccccc2C1=O"
  target.system: "HCV NS3 helicase NS3h_1b(con1) (Hepatitis C virus genotype 1b, UniProt Q9WMX2)"
  Inh. (%) (Inhibition): "−13.7"
- compound: "COc1ccc(/C=C2\\CCc3ccccc3C2=O)cc1OC"
  target.system: "HCV NS3 helicase NS3h_1b(con1) (Hepatitis C virus genotype 1b, UniProt Q9WMX2)"
  Inh. (%) (Inhibition): "−17.5"
- compound: "Cc1c2ccnc(C(N)=O)c2c(C)c2c1[nH]c1ccccc12.Cl"
  target.system: "HCV NS3 helicase NS3h_1b(con1) (Hepatitis C virus genotype 1b, UniProt Q9WMX2)"
  Inh. (%) (Inhibition): "−1.5"
- compound: "CN(C)c1ccc(/C=C2\\Cc3ccccc3C2=O)cc1Br"
  target.system: "HCV NS3 helicase NS3h_1b(con1) (Hepatitis C virus genotype 1b, UniProt Q9WMX2)"
  Inh. (%) (Inhibition): "−12.3"
- compound: "CC(=O)C(N1CCCCC1)C(O)(C(F)(F)F)C(F)(F)F (stereo not drawn)"
  target.system: "HCV NS3 helicase NS3h_1b(con1) (Hepatitis C virus genotype 1b, UniProt Q9WMX2)"
  Inh. (%) (Inhibition): 25.5
